Parameter viability, T/C: see the listing below.
Tested on: 521955-158-R2-J5-PDC complex spheroid growth, % test/control
Assay: Anticancer human tumor 521955-158-R2-J5-PDC patient-derived pancreatic carcinoma cell line growth inhibition [Asc]
Details: second compound 0.01 µM; first compound 1 µM; hits give low values

# example entries with known answers
| molecule | viability, T/C |
| --- | --- |
| C=C(F)C(=O)N1CCN(c2nc(OCC3CCCN3C)nc3c2CCN(c2cccc4cccc(Cl)c24)C3)CC1CC#N (stereo not drawn) + CNC(C)C(=O)NC1CN(S(=O)(=O)c2cccc(S(=O)(=O)N3CCC4CCC(C(=O)NC(c5ccccc5)c5ccccc5)N4C(=O)C(NC(=O)C(C)NC)C3)c2)CCC2CCC(C(=O)NC(c3ccccc3)c3ccccc3)N2C1=O | 98.4% |
| CCN1CCN(Cc2ccc(Nc3ncc(F)c(-c4cc(F)c5nc(C)n(C(C)C)c5c4)n3)nc2)CC1 + CNC(C)C(=O)NC1CN(S(=O)(=O)c2cccc(S(=O)(=O)N3CCC4CCC(C(=O)NC(c5ccccc5)c5ccccc5)N4C(=O)C(NC(=O)C(C)NC)C3)c2)CCC2CCC(C(=O)NC(c3ccccc3)c3ccccc3)N2C1=O | 94.8% |

// next item, viability, T/C requested
Input line: Entry COc1c(OCCCN2CCOCC2)ccc2c3n(c(=NC(=O)c4cnc(N)nc4)nc12)CCN3 + CNC(C)C(=O)NC1CN(S(=O)(=O)c2cccc(S(=O)(=O)N3CCC4CCC(C(=O)NC(c5ccccc5)c5ccccc5)N4C(=O)C(NC(=O)C(C)NC)C3)c2)CCC2CCC(C(=O)NC(c3ccccc3)c3ccccc3)N2C1=O : reported viability, T/C = ?
Output line: 11.8%

---

Below, each entry is listed alongside its reported viability, T/C.
Tested on: 521955-158-R2-J5-PDC complex spheroid growth, % test/control
Assay: Anticancer human tumor 521955-158-R2-J5-PDC cell line growth inhibition [Asc];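 further: spheroids exposed to agents for 7 days before readout; 100% = DMSO vehicle control viability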
Conditions: second compound 0.0949 µM; first compound 0.0316 µM; hits give low values
Kindly answer with a numeric value in %, unit omitted.

Input line: Requested field: viability, T/C. Item: O=C(c1cc(Cc2n[nH]c(=O)c3ccccc23)ccc1F)N1CCN(C(=O)C2CC2)CC1 + CCN1C(C(=O)NC23CCC(C(=O)O)(CC2)CC3)C(c2cccc(Cl)c2F)C2(C(=O)Nc3cc(Cl)ccc32)C12CCCCC2
Output line: 114

Input line: Again, but for O=C(c1ccc(F)c(F)c1Nc1ccc(I)cc1F)N1CC(O)([C@@H]2CCCCN2)C1 + CCN1C(C(=O)NC23CCC(C(=O)O)(CC2)CC3)C(c2cccc(Cl)c2F)C2(C(=O)Nc3cc(Cl)ccc32)C12CCCCC2
Output line: 51.1

Input line: And the next one, C#Cc1c(F)ccc2cc(O)cc(-c3ncc4c(N5CC6CCC(C5)N6)nc(OCC56CCCN5CC(F)C6)nc4c3F)c12 (stereo not given) + CCN1C(C(=O)NC23CCC(C(=O)O)(CC2)CC3)C(c2cccc(Cl)c2F)C2(C(=O)Nc3cc(Cl)ccc32)C12CCCCC2 ?
Output line: 48.1

Input line: What do we get for NC1CCC(NC2CC2c2ccccc2)CC1 (stereo not given) + CCN1C(C(=O)NC23CCC(C(=O)O)(CC2)CC3)C(c2cccc(Cl)c2F)C2(C(=O)Nc3cc(Cl)ccc32)C12CCCCC2 ?
Output line: 65

Input line: Please answer likewise for C=C(F)C(=O)N1CCN(c2nc(OCC3CCCN3C)nc3c2CCN(c2cccc4cccc(Cl)c24)C3)CC1CC#N (stereo not given) + CCN1C(C(=O)NC23CCC(C(=O)O)(CC2)CC3)C(c2cccc(Cl)c2F)C2(C(=O)Nc3cc(Cl)ccc32)C12CCCCC2
Output line: 98

Input line: Try this compound next: C=CC(=O)N1CCN(c2nc(=O)n(-c3c(C)ccnc3C(C)C)c3nc(-c4c(O)cccc4F)c(F)cc23)C(C)C1 (stereo not given) + CCN1C(C(=O)NC23CCC(C(=O)O)(CC2)CC3)C(c2cccc(Cl)c2F)C2(C(=O)Nc3cc(Cl)ccc32)C12CCCCC2
Output line: 112

Input line: Follow-up entry: CNC(C)C(=O)NC1CN(S(=O)(=O)c2cccc(S(=O)(=O)N3CCC4CCC(C(=O)NC(c5ccccc5)c5ccccc5)N4C(=O)C(NC(=O)C(C)NC)C3)c2)CCC2CCC(C(=O)NC(c3ccccc3)c3ccccc3)N2C1=O (stereo not given) + CCN1C(C(=O)NC23CCC(C(=O)O)(CC2)CC3)C(c2cccc(Cl)c2F)C2(C(=O)Nc3cc(Cl)ccc32)C12CCCCC2
Output line: 90.7

---

Tested on: 521955-158-R2-J5-PDC complex spheroid growth, % test/control
Experiment: Anticancer human tumor 521955-158-R2-J5-PDC cell line growth inhibition [Asc];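 further: spheroids exposed to agents for 7 days before readout; 100% = DMSO vehicle control viability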
Settings: second compound 0.949 µM; first compound 0.316 µM; hits give low values
measured quantity: viability, T/C (%)
Hi! Could you send only the number? It should be in %, unit omitted.

| molecule | target | viability, T/C, % |
| --- | --- | --- |
| C#Cc1c(F)ccc2cc(O)cc(-c3ncc4c(N5CC6CCC(C5)N6)nc(OCC56CCCN5CC(F)C6)nc4c3F)c12 (stereo not given) + CCN1C(C(=O)NC23CCC(C(=O)O)(CC2)CC3)C(c2cccc(Cl)c2F)C2(C(=O)Nc3cc(Cl)ccc32)C12CCCCC2 | 521955-158-R2-J5-PDC complex spheroid growth, % test/control | 56.3 |
| CNC(C)C(=O)NC1CN(S(=O)(=O)c2cccc(S(=O)(=O)N3CCC4CCC(C(=O)NC(c5ccccc5)c5ccccc5)N4C(=O)C(NC(=O)C(C)NC)C3)c2)CCC2CCC(C(=O)NC(c3ccccc3)c3ccccc3)N2C1=O (stereo not given) + CCN1C(C(=O)NC23CCC(C(=O)O)(CC2)CC3)C(c2cccc(Cl)c2F)C2(C(=O)Nc3cc(Cl)ccc32)C12CCCCC2 | 521955-158-R2-J5-PDC complex spheroid growth, % test/control | 84.2 |
| C=C(F)C(=O)N1CCN(c2nc(OCC3CCCN3C)nc3c2CCN(c2cccc4cccc(Cl)c24)C3)CC1CC#N (stereo not given) + CCN1C(C(=O)NC23CCC(C(=O)O)(CC2)CC3)C(c2cccc(Cl)c2F)C2(C(=O)Nc3cc(Cl)ccc32)C12CCCCC2 | 521955-158-R2-J5-PDC complex spheroid growth, % test/control | 109 |
| O=C(c1cc(Cc2n[nH]c(=O)c3ccccc23)ccc1F)N1CCN(C(=O)C2CC2)CC1 + CCN1C(C(=O)NC23CCC(C(=O)O)(CC2)CC3)C(c2cccc(Cl)c2F)C2(C(=O)Nc3cc(Cl)ccc32)C12CCCCC2 | 521955-158-R2-J5-PDC complex spheroid growth, % test/control | 113 |

Input line: Which value of viability, T/C has been reported for C=CC(=O)N1CCN(c2nc(=O)n(-c3c(C)ccnc3C(C)C)c3nc(-c4c(O)cccc4F)c(F)cc23)C(C)C1 (stereo not given) + CCN1C(C(=O)NC23CCC(C(=O)O)(CC2)CC3)C(c2cccc(Cl)c2F)C2(C(=O)Nc3cc(Cl)ccc32)C12CCCCC2 in the records?
Output line: 140

---

Measured viability, T/C values are reported for all entries that follow.
Tested on: 521955-158-R2-J5-PDC complex spheroid growth, % test/control
Test: Anticancer human tumor 521955-158-R2-J5-PDC cell line growth inhibition [Asc];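 further: spheroids exposed to agents for 7 days before readout; 100% = DMSO vehicle control viability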
Conditions: second compound 0.316 µM; first compound 0.0949 µM; hits give low values

Recorded results for 3 compounds are shown here.
| compound | viability, T/C |
| --- | --- |
| CCN1C(C(=O)NC23CCC(C(=O)O)(CC2)CC3)C(c2cccc(Cl)c2F)C2(C(=O)Nc3cc(Cl)ccc32)C12CCCCC2 (stereo unspecified) + Cc1c(S(C)(=O)=O)c(-c2cc(F)cc(N3CCN(c4ccc(NS(=O)(=O)c5ccc(NC(CCN6CCC(C(=O)OCCCP(=O)(O)O)CC6)CSc6ccccc6)c(S(=O)(=O)C(F)(F)F)c5)cc4)CC3)c2)c(-c2ccc(Cl)cc2)n1C(C)C | 61.1% |
| CCN1C(C(=O)NC23CCC(C(=O)O)(CC2)CC3)C(c2cccc(Cl)c2F)C2(C(=O)Nc3cc(Cl)ccc32)C12CCCCC2 (stereo unspecified) + CNC(C)C(=O)NC1CN(S(=O)(=O)c2cccc(S(=O)(=O)N3CCC4CCC(C(=O)NC(c5ccccc5)c5ccccc5)N4C(=O)C(NC(=O)C(C)NC)C3)c2)CCC2CCC(C(=O)NC(c3ccccc3)c3ccccc3)N2C1=O | 106% |
| Cc1nc(N2CCC3(CC2)COC(C)C3N)c(CO)nc1Sc1ccnc(N)c1Cl (stereo unspecified) + Cc1c(S(C)(=O)=O)c(-c2cc(F)cc(N3CCN(c4ccc(NS(=O)(=O)c5ccc(NC(CCN6CCC(C(=O)OCCCP(=O)(O)O)CC6)CSc6ccccc6)c(S(=O)(=O)C(F)(F)F)c5)cc4)CC3)c2)c(-c2ccc(Cl)cc2)n1C(C)C | 38.9% |

Input line: Item NC(=O)C(=Cn1cnc(-c2cc(C(F)(F)F)cc(C(F)(F)F)c2)n1)c1cncnc1 + Cc1c(S(C)(=O)=O)c(-c2cc(F)cc(N3CCN(c4ccc(NS(=O)(=O)c5ccc(NC(CCN6CCC(C(=O)OCCCP(=O)(O)O)CC6)CSc6ccccc6)c(S(=O)(=O)C(F)(F)F)c5)cc4)CC3)c2)c(-c2ccc(Cl)cc2)n1C(C)C with 521955-158-R2-J5-PDC complex spheroid growth, % test/control - viability, T/C?
Output line: 17.2%

Input line: And NC(=O)C(=Cn1cnc(-c2cc(C(F)(F)F)cc(C(F)(F)F)c2)n1)c1cncnc1 + CNC(C)C(=O)NC1CN(S(=O)(=O)c2cccc(S(=O)(=O)N3CCC4CCC(C(=O)NC(c5ccccc5)c5ccccc5)N4C(=O)C(NC(=O)C(C)NC)C3)c2)CCC2CCC(C(=O)NC(c3ccccc3)c3ccccc3)N2C1=O ?
Output line: 40.7%

Input line: What do you get for Cc1nc(N2CCC3(CC2)COC(C)C3N)c(CO)nc1Sc1ccnc(N)c1Cl (stereo unspecified) + CNC(C)C(=O)NC1CN(S(=O)(=O)c2cccc(S(=O)(=O)N3CCC4CCC(C(=O)NC(c5ccccc5)c5ccccc5)N4C(=O)C(NC(=O)C(C)NC)C3)c2)CCC2CCC(C(=O)NC(c3ccccc3)c3ccccc3)N2C1=O ?
Output line: 64.4%
